meta.source: PubChem BioAssay (EPA / NIEHS)

Experiment: CCTE_Padilla_ZF_Score.Edema: CCTE's 144 Hour Post-fertilization zebrafish Assay Score for Edema Malformation, Padilla Lab (AID 2284406)
Active and inactive are the calls of the source. How the source made its calls: active means hit-call score of the fitted dose curve at least 0.9, where 1 is the maximum; inactive means score below 0.9.
OBSERVED PROPERTY: AC50

FC1(F)C=CC(F)(F)C1(F)F = inactive
O=C(O)C(F)(F)OC(F)(F)C(F)(F)OC(F)(F)C(F)(F)OC(F)(F)C(F)(F)C(F)(F)C(F)(F)F = 3210 nM (active)
O=P(O)(O)CCC(F)(F)C(F)(F)C(F)(F)C(F)(F)C(F)(F)C(F)(F)C(F)(F)C(F)(F)F = 1690 nM (active)
NC(C(F)(F)F)C(F)(F)F = inactive
C=CC(F)(F)C(F)(F)C(F)(F)C(F)(F)F = inactive

Next compound, please.
Request: Quick one: AC50 for "FC(F)(F)N1C(F)(F)C(F)(F)OC(F)(F)C1(F)F" ?
Result: inactive

###

Read-out: Collagen III, COL3A1 (gene 1281)
Test: BSK_hDFCGF_CollagenIII: BioMAP Diversity Plus: hDFCGF Assay for Collagen III Biomarker Activity (AID 2283056)
Conditions: primary human foreskin fibroblasts; actives raise or lower the signal
The source made the active and inactive calls. How the source made its calls: active means hit-call score of the fitted dose curve at least 0.9, where 1 is the maximum; inactive means score below 0.9.
// classify into active, inactive

Request: Recorded test call requested for "COCN(COC)c1nc(N(COC)COC)nc(N(COC)COC)n1"
Result: inactive

Request: Recorded test call requested for "NC(=NCCCCCCN=C(N)/N=C(\N)Nc1ccc(Cl)cc1)/N=C(\N)Nc1ccc(Cl)cc1"
Result: active

Request: Recorded test call requested for "C=CC(=C)CC/C=C(\C)CCC=C(C)C"
Result: active

Request: Recorded test call requested for "C[C@]12CC[C@@H]3c4ccc(O)cc4CC[C@H]3[C@@H]1C[C@@H](O)[C@@H]2O"
Result: inactive

Request: Recorded test call requested for CCCCC(CC)C(=O)OCCOCCOCCOCCOC(=O)C(CC)CCCC (stereo not given)
Result: inactive

Request: Recorded test call requested for "CN(CCO)S(=O)(=O)C(F)(F)C(F)(F)C(F)(F)C(F)(F)C(F)(F)C(F)(F)C(F)(F)C(F)(F)F"
Result: inactive

Request: Recorded test call requested for "O=S(=O)(O)C(F)(F)C(F)(F)C(F)(F)C(F)(F)C(F)(F)C(F)(F)C(F)(F)C(F)(F)C(F)(F)C(F)(F)F"
Result: inactive

Request: Recorded test call requested for "CCOC(=O)CN[C@@H](C(=O)N1CC[C@H]1C(=O)NCc1ccc(/C(N)=N/O)cc1)C1CCCCC1"
Result: inactive

Request: Recorded test call requested for "CCCCCc1ccc(O)cc1"
Result: active

Request: Recorded test call requested for "CN(C)c1ccc(C(=C2C=CC(=[N+](C)C)C=C2)c2ccccc2)cc1"
Result: active

###

Assay: STM_H9_NormalizedViability: Cytotoxicity Assessment at 120 hours in the Stemina devTOX quickPredict H9 human embryonic stem cell (hESC)-based Assay (AID 2283784)
Inconclusive results are not listed. Calls of active or inactive are those of the source. The calls were made as follows: active = hit-call score of the fitted dose curve at least 0.9, where 1 is the maximum; inconclusive = response in the unintended direction; inactive = score below 0.9.
// classify into y (active), n (inactive)

Request: Recorded test call requested for "Oc1c(Cl)cc(Cl)cc1Sc1cc(Cl)cc(Cl)c1O"
Result: n

Request: Recorded test call requested for "CC(C)(C)c1ccc(O)c(O)c1"
Result: y

Request: Recorded test call requested for "Cc1[nH]nc2c1N=C(c1ccccc1Cl)c1cc([N+](=O)[O-])ccc1N2"
Result: y

Request: Recorded test call requested for "C=Cc1ccc(O)c(OC)c1"
Result: y

Request: Recorded test call requested for CCCCC(CC)C(=O)O (stereo not drawn)
Result: n

Request: Recorded test call requested for "CCCCc1oc2ccccc2c1C(=O)c1cc(I)c(OCCN(CC)CC)c(I)c1"
Result: y

Request: Recorded test call requested for "Cn1sccc1=O"
Result: n

Request: Recorded test call requested for "O=C(CCCN1CCC(O)(c2ccc(Cl)cc2)CC1)c1ccc(F)cc1"
Result: n

###

Read-out: Keratin 19 (KRT19), KRT19 (gene 3880)
Assay: LTEA_HepaRG_KRT19: Life Technologies and Expression Analysis (LTEA) Assay for Keratin 19 (KRT19) using HepaRG (AID 2283512)
Conditions: mRNA level, 48 h; actives raise or lower the signal
Active and inactive are the calls of the source. How the source made its calls: active means hit-call score of the fitted dose curve at least 0.9, where 1 is the maximum; inactive means score below 0.9.
OBSERVED PROPERTY: AC50

CCCCc1oc2ccccc2c1C(=O)c1cc(I)c(OCCN(CC)CC)c(I)c1 = 37.8 µM (active)
CCCCCCCCCCCCCCC = inactive
CCC(C)c1ccccc1O (centres undefined) = inactive
CCCCC=O = inactive
O=C(c1ccccc1)c1ccccc1 = inactive
N=C(N)c1ccc(OCCCCCOc2ccc(C(=N)N)cc2)cc1 = 31 µM (active)
CCCCCCCCCCCCOS(=O)(=O)O = 79.9 µM (active)
O=C1NS(=O)(=O)c2ccccc21 = inactive

Next compound, please.
Request: Quick one: AC50 for "OCC(CO)(CBr)CBr" ?
Result: inactive

###

Experiment: ATG_XTT_Cytotoxicity: Cytotoxicity Assessment in the Attagene TRANS-FACTORIAL HepG2 Assay (AID 2283584)
Description: ATG_XTT_Cytotoxicity is a cell-based, single-readout assay that uses HepG2, a human liver cell line, with measurements taken at 24 hours after chemical dosing in a 24-well plate.ATG_XTT_Cytotoxicity is one of one assay component(s) measured or calculated from the ATG_XTT_Cytotoxicity assay. […] This assay endpoint, ATG_XTT_Cytotoxicity, was analyzed in the positive analysis fitting direction relative to DMSO as the negative control and baseline of activity. […]
Inconclusive results are not listed. Activity calls are given as the source filed them. How the source made its calls: active means hit-call score of the fitted dose curve at least 0.9, where 1 is the maximum; inconclusive means response in the unintended direction; inactive means score below 0.9.
// classify into active, inactive

Request: Recorded test call requested for "COC1=CC(=O)C[C@@H](C)[C@]12Oc1c(Cl)c(OC)cc(OC)c1C2=O"
Result: inactive

Request: Recorded test call requested for "O=C(O)CN(CCCN(CC(=O)O)CC(=O)O)CC(=O)O"
Result: inactive

Request: Recorded test call requested for "CCCCCCCC(OC)OC"
Result: inactive

Request: Recorded test call requested for "CC(=O)Nc1ccc(O)cc1"
Result: inactive

Request: Recorded test call requested for "CCCCc1oc2ccccc2c1C(=O)c1cc(I)c(OCCN(CC)CC)c(I)c1"
Result: inactive

Request: Recorded test call requested for "CCOC(=O)CN[C@@H](C(=O)N1CC[C@H]1C(=O)NCc1ccc(/C(N)=N/O)cc1)C1CCCCC1"
Result: inactive

Request: Recorded test call requested for "O=C(Nc1ccc(Cl)c(Cl)c1)c1cc(Cl)cc(Cl)c1O"
Result: active

Request: Recorded test call requested for "Nc1cc(Cl)c(-c2cc(Cl)c(N)cc2Cl)cc1Cl"
Result: inactive

Request: Recorded test call requested for "O=S(=O)(O)c1ccc2cc(O)ccc2c1"
Result: inactive

Request: Recorded test call requested for "CCCCCCCCCCCCCCCCCC[N+](C)(C)Cc1ccccc1"
Result: active

Request: Recorded test call requested for "Cc1ccc(C(=O)c2ccccc2)cc1"
Result: inactive

Request: Recorded test call requested for "N=C(N)c1ccc(OCCCCCOc2ccc(C(=N)N)cc2)cc1"
Result: inactive

###

Target: human Thyroid Receptor alpha (THRa1), THRA (gene 7067)
Experiment: ATG_THRa1_TRANS: Attagene TRANS-FACTORIAL HepG2 Assay for human Thyroid Receptor alpha (THRa1) (AID 2283014)
Records with an inconclusive call do not appear. Calls of active or inactive are those of the source. How the source made its calls: active means hit-call score of the fitted dose curve at least 0.9, where 1 is the maximum; inconclusive means response in the unintended direction; inactive means score below 0.9.
// classify into active, inactive

Request: Recorded test call requested for "Cc1cc(=O)oc2cc(O)ccc12"
Result: inactive

Request: Recorded test call requested for "O=C(O)C(F)(F)OC(F)(F)C(F)(F)OC(F)(F)C(F)(F)OC(F)(F)C(F)(F)C(F)(F)C(F)(F)F"
Result: inactive

Request: Recorded test call requested for "CCc1ccccc1O"
Result: inactive

Request: Recorded test call requested for "CCOC(C)=O"
Result: inactive

Request: Recorded test call requested for "NC(C(F)(F)F)C(F)(F)F"
Result: inactive

Request: Recorded test call requested for "O=C(O)CCC(F)(F)C(F)(F)C(F)(F)C(F)(F)C(F)(F)C(F)(F)F"
Result: inactive

Request: Recorded test call requested for "Oc1cccc2c(O)cccc12"
Result: inactive

Request: Recorded test call requested for "O=P(O)(O)CCC(F)(F)C(F)(F)C(F)(F)C(F)(F)C(F)(F)C(F)(F)F"
Result: inactive

Request: Recorded test call requested for "CCCCCCCCCCCC"
Result: inactive

Request: Recorded test call requested for "C[C@]12CC[C@@H]3c4ccc(O)cc4CC[C@H]3[C@@H]1C[C@@H](O)[C@@H]2O"
Result: inactive

Request: Recorded test call requested for "O=C(c1cc(O)c(O)c(O)c1)c1ccc(O)c(O)c1O"
Result: inactive

Request: Recorded test call requested for "NS(=O)(=O)O"
Result: inactive

Request: Recorded test call requested for "CN(C)CCOC(c1ccccc1)c1ccccc1"
Result: inactive

Request: Recorded test call requested for CCCCCCCCC1CCC(=O)O1 (stereo not drawn)
Result: inactive

Request: Recorded test call requested for "COC(=O)C(F)(F)C(F)(F)C(F)(F)F"
Result: inactive

Request: Recorded test call requested for "O=C1C=CC(=O)N1c1cccc(N2C(=O)C=CC2=O)c1"
Result: inactive

Request: Recorded test call requested for "CCCCCCCCCCCCCC[n+]1ccccc1"
Result: inactive

Request: Recorded test call requested for "C=CC(=O)OCCC(F)(F)C(F)(F)C(F)(F)C(F)(F)C(F)(F)C(F)(F)C(F)(F)C(F)(F)F"
Result: inactive

Request: Recorded test call requested for CC1CCC(C(=O)O)CC1 (stereo not drawn)
Result: inactive

Request: Recorded test call requested for "CC(C)[C@@H]1CC[C@@H](C)C[C@H]1O"
Result: inactive

Request: Recorded test call requested for "O=CC(F)(F)C(F)(F)C(F)(F)C(F)F"
Result: inactive

Request: Recorded test call requested for "O=C1c2ccccc2C(=O)c2c(O)c(O)cc(O)c21"
Result: active

Request: Recorded test call requested for "O=C1OC(=O)c2cc(-c3ccc4c(c3)C(=O)OC4=O)ccc21"
Result: inactive

Request: Recorded test call requested for "Nc1cc(Cl)c(-c2cc(Cl)c(N)cc2Cl)cc1Cl"
Result: inactive

Request: Recorded test call requested for "COc1cc([N+](=O)[O-])ccc1N"
Result: inactive

Request: Recorded test call requested for "CCCCCCCCCCCC[N+](C)(C)Cc1ccccc1"
Result: inactive

Request: Recorded test call requested for "CC1=NN(c2ccccc2)C(=O)C1"
Result: inactive

Request: Recorded test call requested for "Cn1sccc1=O"
Result: inactive

Request: Recorded test call requested for "CCCCCCC(C)(C)C(=O)O"
Result: inactive

Request: Recorded test call requested for COC(=O)CC(C(C)=O)C(=O)OC (stereo not drawn)
Result: inactive

Request: Recorded test call requested for "CCN(CC)CC"
Result: inactive

Request: Recorded test call requested for CCC1CO1 (stereo not drawn)
Result: inactive

Request: Recorded test call requested for "CN(CCO)S(=O)(=O)C(F)(F)C(F)(F)C(F)(F)C(F)(F)C(F)(F)C(F)(F)C(F)(F)C(F)(F)F"
Result: inactive

Request: Recorded test call requested for "C=C(c1ccc(C(=O)O)cc1)c1cc2c(cc1C)C(C)(C)CCC2(C)C"
Result: inactive

Request: Recorded test call requested for "CCCCCCCCCCCCCCCCCC[N+](C)(C)Cc1ccccc1"
Result: active

Request: Recorded test call requested for "Oc1c(Cl)cc(Cl)cc1Sc1cc(Cl)cc(Cl)c1O"
Result: inactive

Request: Recorded test call requested for "CCCCCCCCCCCC(=O)O"
Result: inactive

Request: Recorded test call requested for "CCC(=O)C=Cc1ccc(OC)cc1"
Result: inactive

Request: Recorded test call requested for "COc1ccccc1NC(=O)c1cc2ccccc2cc1O"
Result: active

Request: Recorded test call requested for CCCCC(CC)C(=O)OCCOCCOCCOCCOC(=O)C(CC)CCCC (stereo not drawn)
Result: inactive

Request: Recorded test call requested for "O=C(CC(=O)C(F)(F)C(F)(F)C(F)(F)F)c1cccs1"
Result: inactive

Request: Recorded test call requested for "OCCN1CN(CCO)CN(CCO)C1"
Result: inactive

Request: Recorded test call requested for "O=c1cc(-c2ccccc2)oc2ccc3ccccc3c12"
Result: inactive

Request: Recorded test call requested for "O=C(NCc1ncc(C(F)(F)F)cc1Cl)c1c(Cl)cccc1Cl"
Result: inactive

Request: Recorded test call requested for "FC(F)(F)C1(F)C(F)(F)C(F)(F)C(F)(F)C1(F)F"
Result: inactive

Request: Recorded test call requested for "C[N+](C)(CCCNS(=O)(=O)CCC(F)(F)C(F)(F)C(F)(F)C(F)(F)C(F)(F)C(F)(F)F)CC(=O)[O-]"
Result: inactive

Request: Recorded test call requested for "Cc1cccc2c1ccc1ccccc12"
Result: inactive

Request: Recorded test call requested for CC1COCc2cc3c(cc21)C(C)(C)C(C)C3(C)C (stereo not drawn)
Result: inactive

Request: Recorded test call requested for "CN(C)c1ccc(C(=C2C=CC(=[N+](C)C)C=C2)c2ccccc2)cc1"
Result: inactive

Request: Recorded test call requested for "CC(C)C=O"
Result: inactive

Request: Recorded test call requested for "NNc1nc(-c2ccc([N+](=O)[O-])cc2)cs1"
Result: active

Request: Recorded test call requested for "O=C1OC2(c3ccccc31)c1cc(I)c(O)c(I)c1Oc1c2cc(I)c(O)c1I"
Result: inactive

Request: Recorded test call requested for "Clc1ccc(Nc2nnc(Cc3ccncc3)c3ccccc23)cc1"
Result: inactive
